System under test: SNX27 PDZ (SNX27) (Rattus norvegicus)
Residues, ends and D or L forms follow the SMILES beside them.
Measured parameter: pKi
Give bare numbers, as −log10 of the molar value.

The cases that follow already have their pKi on record.
CC(C)C[C@H](NC(=O)[C@H](CCCNC(=N)N)NC(=O)[C@@H](NC(=O)[C@H](CCC(=O)O)NC(=O)[C@H](CCCNC(=N)N)NC(=O)[C@H](CCCNC(=N)N)NC(=O)[C@@H](NC(=O)[C@H](CCCNC(=N)N)NC(=O)[C@H](CO)NC(=O)[C@@H](N)CO)[C@@H](C)O)[C@@H](C)O)C(=O)O [HPVP1R] (H-SSRTRRETRL-OH) = 5.68
CC(C)C[C@H](NC(=O)[C@H](CCC(N)=O)NC(=O)[C@@H](NC(=O)[C@H](CCC(=O)O)NC(=O)[C@H](CCCNC(=N)N)NC(=O)[C@@H](NC(=O)[C@@H](NC(=O)[C@H](CCCNC(=N)N)NC(=O)[C@H](CO)NC(=O)[C@@H](N)CO)[C@@H](C)O)C(C)C)[C@@H](C)O)C(=O)O [HPVP5V] (H-SSRTVRETQL-OH) = 6.96

Please give pKi for each item listed below.
1. CC(C)C[C@H](NC(=O)[C@H](CCC(N)=O)NC(=O)[C@@H](NC(=O)[C@H](CC(=O)O)NC(=O)[C@H](CCC(N)=O)NC(=O)[C@@H](NC(=O)[C@@H](NC(=O)[C@H](CCCNC(=N)N)NC(=O)[C@H](CO)NC(=O)[C@@H](N)CO)[C@@H](C)O)C(C)C)[C@@H](C)O)C(=O)O [CFTRP1Q] (H-SSRTVQDTQL-OH)
2. CC(C)C[C@H](NC(=O)[C@H](CCC(N)=O)NC(=O)[C@@H](NC(=O)[C@H](CCC(=O)O)NC(=O)[C@H](CCCNC(=N)N)NC(=O)[C@H](CCCNC(=N)N)NC(=O)[C@@H](NC(=O)[C@H](CCCNC(=N)N)NC(=O)[C@H](CO)NC(=O)[C@@H](N)CO)[C@@H](C)O)[C@@H](C)O)C(=O)O

## Result
[6.59, 5.82]

* * *

System under test: SNX27 PDZ (SNX27) (Rattus norvegicus, UniProt Q8K4V4)
Residues, ends and D or L forms follow the SMILES beside them.
I'd be grateful if you could share measured Ki for these entries.

Known results for compounds:
CC(C)C[C@H](NC(=O)[C@H](CCCNC(=N)N)NC(=O)[C@@H](NC(=O)[C@H](CC(=O)O)NC(=O)[C@H](CCCNC(=N)N)NC(=O)[C@@H](NC(=O)[C@@H](NC(=O)[C@H](CCCNC(=N)N)NC(=O)[C@H](CO)NC(=O)[C@@H](N)CO)[C@@H](C)O)C(C)C)[C@@H](C)O)C(=O)O [CFTRP4R] (H-SSRTVRDTRL-OH) = 440 nM
CC(C)C[C@H](NC(=O)[C@H](CCC(N)=O)NC(=O)[C@@H](NC(=O)[C@H](CCC(=O)O)NC(=O)[C@H](CCC(N)=O)NC(=O)[C@H](CCCNC(=N)N)NC(=O)[C@@H](NC(=O)[C@H](CCCNC(=N)N)NC(=O)[C@H](CO)NC(=O)[C@@H](N)CO)[C@@H](C)O)[C@@H](C)O)C(=O)O [HPVP4Q] (H-SSRTRQETQL-OH) = 510 nM

// switching to the query compound
## Task Quick one: Ki for CC(C)C[C@H](NC(=O)[C@H](CCCNC(=N)N)NC(=O)[C@@H](NC(=O)[C@H](CC(=O)O)NC(=O)[C@H](CCC(N)=O)NC(=O)[C@H](CCCNC(=N)N)NC(=O)[C@@H](NC(=O)[C@H](CCCNC(=N)N)NC(=O)[C@H](CO)NC(=O)[C@@H](N)CO)[C@@H](C)O)[C@@H](C)O)C(=O)O [CFTRP5R] (H-SSRTRQDTRL-OH) ?
## Result 7400 nM
